measuredTarget: 11β-HSD1 (Homo sapiens)
Sequence (P28845 whole entry): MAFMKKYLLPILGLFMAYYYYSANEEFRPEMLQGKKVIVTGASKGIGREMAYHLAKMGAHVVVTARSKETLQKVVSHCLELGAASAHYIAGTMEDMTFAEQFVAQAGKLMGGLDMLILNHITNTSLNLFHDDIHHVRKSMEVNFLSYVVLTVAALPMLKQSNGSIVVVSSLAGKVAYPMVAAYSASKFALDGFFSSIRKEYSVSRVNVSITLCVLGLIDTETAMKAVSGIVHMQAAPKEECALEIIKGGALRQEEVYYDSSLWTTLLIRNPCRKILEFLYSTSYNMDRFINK
testSummary: Biological Test Example 4: microsomal 11β-HSD1 in the presence of 50% human plasma
experimentalConditions: IC50 in Test Example 4 divided by IC50 in Test Example 1
measuredEndpoint: Shift

Exercise: Returns the measured Shift for the input molecule. Input: `C[C@@H](c1ccc(-c2ccc(C#N)cn2)cc1)N1CC[C@](CCCO)(c2ccc(F)cc2)OC1=O`
Solution: 6.0

Exercise: Returns the measured Shift for the input molecule. Input: `C[C@@H](c1ccc(-c2cccc(OC3CCCC3)n2)cc1)N1CC[C@](CC(C)(C)O)(c2ccccc2)OC1=O`
Solution: 129.7

A. C[C@@H](c1ccc(-c2cnc(C#N)cn2)cc1)N1CC[C@](CC(C)(C)O)(c2ccc(F)cc2)OC1=O
B. Cc1cc(-c2ccc([C@H](C)N3CC[C@](CCCNS(C)(=O)=O)(c4ccccc4)OC3=O)cc2)ccn1
Exercise: Lowest Shift? choose A or B Which one? Tell me its label.
Solution: A
